Hey, just so you know, these numbers are from paper PMC12920416.

Assay: Plasma protein binding of tracer, rat plasma
Format: in vitro ADME
Conditions: radiotracer, 10 min incubation, ultrafiltration, read-out: Free fraction in rat plasma
valueType: fraction unbound at 10 min, 2.47 MBq/mL

[[record]]
compound = "Cc1c([18F])cccc1[C@H]1COC(N)=N1 [[^18F]TAAR1-2203]"
valuetype = "fraction unbound at 10 min, 2.47 MBq/mL"
observed = "~0.6"


---

Biological target: rat TAAR1 (Rattus norvegicus, UniProt Q923Y9)
Sequence (Q923Y9 whole entry): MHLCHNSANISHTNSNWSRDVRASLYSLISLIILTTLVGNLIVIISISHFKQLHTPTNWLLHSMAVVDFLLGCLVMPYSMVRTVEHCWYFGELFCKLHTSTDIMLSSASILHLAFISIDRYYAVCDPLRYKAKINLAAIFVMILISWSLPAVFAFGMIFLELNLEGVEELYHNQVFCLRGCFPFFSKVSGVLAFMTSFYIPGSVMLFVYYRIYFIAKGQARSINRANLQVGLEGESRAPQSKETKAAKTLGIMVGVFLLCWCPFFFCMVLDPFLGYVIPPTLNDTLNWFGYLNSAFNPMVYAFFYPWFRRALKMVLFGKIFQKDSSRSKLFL
valueType: Ki (nM)

[[record]]
compoundstring = "Cc1c(F)cccc1[C@H]1COC(N)=N1"
valuetype = "Ki"
observed = 7.4


---

Assay: Distribution coefficient (LogD), shake-flask method
Format: physicochemical
Conditions: n-octanol/PBS pH 7.4, n = 3, read-out: LogD7.4
valueType: logD

[[record]]
molecule = "Cc1c([18F])cccc1[C@H]1COC(N)=N1 [[^18F]TAAR1-2203]"
valuetype = "logD"
observed = 1.64


---

Assay: Plasma protein binding of tracer, human plasma
Type: in vitro ADME
Details: radiotracer, 10 min incubation, ultrafiltration, read-out: Free fraction in human plasma
valueType: fraction unbound at 10 min

[[record]]
compound = "Cc1c([18F])cccc1[C@H]1COC(N)=N1 [[^18F]TAAR1-2203]"
valuetype = "fraction unbound at 10 min"
observed = "~0.6"


---

Assay: Plasma protein binding of tracer, NHP plasma
Type: in vitro ADME
Details: non-human primate, radiotracer, 10 min incubation, ultrafiltration, read-out: Free fraction in NHP plasma
valueType: fraction unbound at 10 min, 2.47 MBq/mL

[[record]]
molecule = "Cc1c([18F])cccc1[C@H]1COC(N)=N1 [[^18F]TAAR1-2203]"
observed = "~0.6"


---

Target: TAAR1
Assay: Competition binding assay, cynomolgus monkey TAAR1
valueType: Ki (nM)

[[record]]
compoundstring = "Cc1c(F)cccc1[C@H]1COC(N)=N1"
valuetype = "Ki"
observed = 22.5


---

Molecular target: TAAR1 (Homo sapiens)
Sequence (Q96RJ0 1-339): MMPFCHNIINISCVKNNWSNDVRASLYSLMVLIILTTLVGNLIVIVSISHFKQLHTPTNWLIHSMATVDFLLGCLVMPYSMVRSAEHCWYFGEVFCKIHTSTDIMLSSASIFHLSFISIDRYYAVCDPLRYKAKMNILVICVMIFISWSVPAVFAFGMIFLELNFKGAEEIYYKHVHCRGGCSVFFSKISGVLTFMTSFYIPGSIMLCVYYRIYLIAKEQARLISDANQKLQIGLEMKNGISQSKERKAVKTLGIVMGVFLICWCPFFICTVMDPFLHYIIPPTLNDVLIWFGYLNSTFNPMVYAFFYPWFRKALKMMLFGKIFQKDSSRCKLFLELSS
pKi: −log10 of the molar value.
valueType: pKi

[[record]]
compoundstring = "Cc1c(F)cccc1[C@H]1COC(N)=N1"
observed = 8.24

